Cited source: ChEMBL document CHEMBL1148607

- Test system: Plectosphaerella cucumerina
- assay_remarks: Antifungal activity against Plectosphaerella cucumerina
- Type: functional, organism-based
quantity_measured: pEC50
// pEC50: -log10(molar conc.)

Tell me the measured pEC50 of H-THRTRPALAARGASNCYSTYRASNVALCYSARGLEPRARGGLIIECYSALALYSLYSCYS-OH (cysteines drawn unpaired) , please. 6.80

###

- Test system: Sinorhizobium meliloti
- assay_remarks: Antibacterial activity against Rhizobium meliloti
- Type: functional, organism-based
quantity_measured: EC50 (µM)
Only the number, expressed in µM, is required.

Give the reported EC50 for H-THRTRPALAARGASNCYSTYRASNVALCYSARGLEPRARGGLIIECYSALALYSLYSCYS-OH (cysteines drawn unpaired) (system: Sinorhizobium meliloti). 2.07
